# experimental target: CRTH2 (Homo sapiens)
# Construct: polymorphonuclear cells (0.5 ml; 10^6/ml cells) in PBS containing 0.9 mM CaCl2 and 0.5 mM MgCl2; endogenous in cells; host or cells: polymorphonuclear cells (eosinophils gated by flow cytometry)
# Sequence (Q9Y5Y4 whole entry): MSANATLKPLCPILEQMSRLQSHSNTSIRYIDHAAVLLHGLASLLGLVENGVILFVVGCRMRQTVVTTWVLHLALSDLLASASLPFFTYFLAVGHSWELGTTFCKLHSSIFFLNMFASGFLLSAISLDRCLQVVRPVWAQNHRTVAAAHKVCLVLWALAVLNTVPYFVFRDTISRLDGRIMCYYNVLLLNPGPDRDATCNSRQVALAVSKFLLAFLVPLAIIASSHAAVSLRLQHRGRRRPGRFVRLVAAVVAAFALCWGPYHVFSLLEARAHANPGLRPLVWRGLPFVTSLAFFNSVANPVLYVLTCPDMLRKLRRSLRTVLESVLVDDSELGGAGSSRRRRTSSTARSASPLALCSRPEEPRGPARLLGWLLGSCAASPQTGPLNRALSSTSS
# procedure text: DPBS CD11b Antagonist Assay
# Assay type: cell-based
# experimental parameters: polymorphonuclear cells in PBS, eosinophil CD11b expression, challenge with 15R-Methyl-PGD2 (10 nM)
property name: IC50

> print(dat)
                            compound.smiles  property.name         result
1  Cc1c(Cc2ccc(S(=O)(=O)NC3CCCCC3)cc2)c2c(n1CC(=O)O)CCCC2           IC50         < 5 nM
2  Cc1c(Cc2ccccc2S(=O)(=O)N2CCOCC2)c2c(n1CC(=O)O)C(C)(C)CCC2           IC50         < 5 nM
3  CCOC(=O)Cn1c(C)c(Cc2ccccc2S(=O)(=O)N2CCOCC2)c2c1CC(C)(C)CC2=O           IC50  100 to 500 nM
4  Cc1c(Sc2ccc(S(=O)(=O)N3CCOCC3)cc2)c2c(n1CC(=O)O)CC(C)(C)CC2=O           IC50  100 to 500 nM
